All values here come from paper doi:10.1101/2023.02.14.528391v1.

Target: hERG potassium channel (Homo sapiens)
Assay: radioligand competition binding, membranes
readout.name: Ki (nM)
The reply should contain only the number, in nM.

Worked cases, Ki given:
CN(C)CCCn1nc(-c2cccs2)c2ccccc2c1=O 946
CN(C)CCCn1nc(-c2ccc(F)cc2)c2ccccc2c1=O 1490

*Q* Which measured Ki value corresponds to CN(C)CCN(Cc1ccccc1)c1nc2cccc(F)c2s1 ?
*A* 1590

*Q* Which measured Ki value corresponds to CN(C)CCCn1nc(-c2ccc(Cl)cc2)c2ccccc2c1=O ?
*A* 643

*Q* Which measured Ki value corresponds to CN(C)CCCc1nc2ccccc2n1Cc1ccccc1 ?
*A* 400

====

We begin with a simple list: items and their reported IC50.
Molecular target: hERG potassium channel (Homo sapiens)
Assay: biochemical
Conditions: hERG / IC50 (nM), Synthesis=NBI
Write the quantity with the unit trailing the number.

Worked cases, IC50 given:
CN(C)CCCn1nc(-c2ccccc2)c2ccccc2c1=O 3580 nM
CN(C)CCCn1nc(-c2ccc(Cl)cc2)c2ccccc2c1=O 1220 nM

Now turn to the next compound.
*Q* Which measured IC50 value corresponds to CSc1ncccc1-c1nn(CCCN(C)C)c(=O)c2ccccc12 ?
*A* 8700 nM

====

We begin with a simple list: items and their reported Ki.
Target: hERG potassium channel (Homo sapiens, UniProt Q12809)
Sequence (Q12809 whole entry): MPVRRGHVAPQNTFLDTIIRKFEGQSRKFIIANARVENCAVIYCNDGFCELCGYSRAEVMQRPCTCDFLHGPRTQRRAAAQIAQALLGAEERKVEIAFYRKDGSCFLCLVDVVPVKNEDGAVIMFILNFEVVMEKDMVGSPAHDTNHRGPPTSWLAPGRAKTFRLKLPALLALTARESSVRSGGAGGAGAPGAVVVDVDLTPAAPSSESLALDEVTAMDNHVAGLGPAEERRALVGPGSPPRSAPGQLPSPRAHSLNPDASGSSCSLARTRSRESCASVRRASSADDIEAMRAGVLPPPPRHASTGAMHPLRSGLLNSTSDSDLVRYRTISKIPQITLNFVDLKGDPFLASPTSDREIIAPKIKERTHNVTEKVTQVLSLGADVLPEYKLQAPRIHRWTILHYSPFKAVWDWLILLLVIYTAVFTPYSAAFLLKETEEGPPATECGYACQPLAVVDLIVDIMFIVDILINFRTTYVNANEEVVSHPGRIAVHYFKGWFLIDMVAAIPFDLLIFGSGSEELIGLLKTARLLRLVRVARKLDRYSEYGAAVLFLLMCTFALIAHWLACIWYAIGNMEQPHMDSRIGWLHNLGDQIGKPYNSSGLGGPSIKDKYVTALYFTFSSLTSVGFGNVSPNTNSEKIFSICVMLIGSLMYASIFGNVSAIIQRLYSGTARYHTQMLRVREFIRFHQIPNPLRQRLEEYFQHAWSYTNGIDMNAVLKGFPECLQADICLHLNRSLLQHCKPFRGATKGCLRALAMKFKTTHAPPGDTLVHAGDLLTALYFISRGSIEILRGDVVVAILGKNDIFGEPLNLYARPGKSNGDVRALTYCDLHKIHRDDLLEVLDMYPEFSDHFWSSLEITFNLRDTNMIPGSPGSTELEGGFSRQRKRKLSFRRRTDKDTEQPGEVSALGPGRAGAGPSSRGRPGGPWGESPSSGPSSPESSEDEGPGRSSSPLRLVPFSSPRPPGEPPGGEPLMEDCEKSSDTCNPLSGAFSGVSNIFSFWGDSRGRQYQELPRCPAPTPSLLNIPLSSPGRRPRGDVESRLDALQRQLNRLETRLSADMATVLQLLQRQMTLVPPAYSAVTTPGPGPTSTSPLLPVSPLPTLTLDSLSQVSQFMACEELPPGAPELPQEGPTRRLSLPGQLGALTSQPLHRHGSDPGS
Assay: biochemical
Details: hERG / Ki (nM), Synthesis=NBI
The reply should contain only the number, in nM.

CN(C)CCCn1nc(-c2ccccn2)c2ccccc2c1=O 4300
CN(C)CCCn1nc(-c2cccs2)c2ccccc2c1=O 1340
CN(C)CCCn1nc(-c2cccc(Cl)c2)c2ccccc2c1=O 510

*Q* Which measured Ki value corresponds to CN(C)CCCn1nc(-c2ccccc2)c2ccccc2c1=O ?
*A* 2530

*Q* Which measured Ki value corresponds to CN(C)CCn1nc(-c2cccc(Cl)c2)c2ccccc2c1=O ?
*A* 1710

*Q* Which measured Ki value corresponds to CN(C)CCN(C)c1nc2ccccc2n1Cc1ccccc1F ?
*A* 2150

*Q* Which measured Ki value corresponds to CN(C)CCCn1nc(-c2cncc(Cl)c2)c2ccccc2c1=O ?
*A* 684

====

Biological target: hERG potassium channel (Homo sapiens)
Assay: in vitro
readout.name: inhibition at 10 µM (%)
The reply should contain only the number, in %.

*Q* Give hERG potassium channel (Homo sapiens) inhibition at 10 µM for CN(C)CCN(Cc1ccccc1F)C(=O)Cc1c[nH]c2nccc(Cl)c12
*A* 38.7

====

Biological target: hERG potassium channel (Homo sapiens, UniProt Q12809)
Test: in vitro
Conditions: % inhibition
readout.name: inhibition at 10 µM (%)
The reply should contain only the number, in %.

molecule	quantitative.result
CN(C)CCc1nc2ccccc2n1Cc1ccc(F)cc1 [GMD_9161]	6.04
CN(C)CCCn1nc(-c2ccc(F)cc2)c2ccccc2c1=O [s_49____14518112____1114614]	80.8
Cc1cccc2c(C(=O)N(CCN(C)C)Cc3ccccc3F)nccc12 [s_527____7348186____14188826]	52.7
CN(C)CCN(C(=O)c1cccc2ncccc12)c1ccccc1 [s_11____2264406____15260550]	21.8
CN(C)CCn1nc(-c2cccc(Cl)c2)c2ccccc2c1=O [GMD_13630]	79.1
CN(C)CCN(Cc1ccccc1)c1nc2cccc(F)c2s1 [s_27____7100858____10689034]	83

*Q* Which measured inhibition at 10 µM value corresponds to CN(C)CCOc1ccccc1-c1cn(C)c2cccnc12 [s_271570____11676396____16733458] ?
*A* 63.8

*Q* Which measured inhibition at 10 µM value corresponds to Cc1ccc(-c2nn(CN(C)CCC3CCOCC3)c(=O)c3ccccc23)cc1 [m_26____7043632____590162] ?
*A* 7.12

*Q* Which measured inhibition at 10 µM value corresponds to CN(C)CCC(Sc1ccncc1F)c1ccccc1 (centres unmarked) [s_7____14325654____13940010] ?
*A* 47.3

*Q* Which measured inhibition at 10 µM value corresponds to CN(C)CCN(CCc1ccccc1)C(=O)c1csc2cc(Cl)cnc12 [s_11____764634____11618976] ?
*A* 88.2

*Q* Which measured inhibition at 10 µM value corresponds to CN(C)CCn1nc(-c2ccccc2)c2ccccc2c1=O [GMD_24043] ?
*A* 60.1

====

Target: hERG potassium channel (Homo sapiens, UniProt Q12809)
Assay: in vitro
Conditions: % inhibition
readout.name: inhibition at 10 µM
Write the quantity with the unit trailing the number.

Worked cases, inhibition at 10 µM given:
compound	assayed.target	inhibition at 10 µM
CN(C)CCC(Sc1nccn1Cc1ccccn1)c1ccccc1 (stereo not shown) [s_7____4839872____13940010]	hERG potassium channel (Homo sapiens, UniProt Q12809)	5.79%
COc1cc(C(=O)N(CCN(C)C)c2ccccc2)c2ncccc2c1 [s_11____2264406____15769708]	hERG potassium channel (Homo sapiens, UniProt Q12809)	22.5%
CN(Cc1sccc1Cl)C[C@H]1CCCCN1C(=O)c1ncccc1F	hERG potassium channel (Homo sapiens, UniProt Q12809)	27.4%
CN(C)CCN(Cc1ccccc1F)C(=O)c1cccc2ncccc12 [s_527____7348186____237975]	hERG potassium channel (Homo sapiens, UniProt Q12809)	1.57%
CN(C)CCN(Cc1cccs1)c1nccc(F)c1Cl [s_27____7100914____15703356]	hERG potassium channel (Homo sapiens, UniProt Q12809)	55.7%

*Q* Which measured inhibition at 10 µM value corresponds to CN(C)CCN(Cc1ccccc1)Cc1c(Cl)cccc1-n1ccnc1 [s_270004____10205888____17057166] ?
*A* 71.1%

*Q* Which measured inhibition at 10 µM value corresponds to CN(C)CCCN(Cc1ccc(Cl)c(Cl)c1)C(=O)c1ccn2c1CSCC2 [s_527____1500312____16910956] ?
*A* 66.8%

*Q* Which measured inhibition at 10 µM value corresponds to Cc1ccc(C(=O)N(CCN(C)C)Cc2ccccc2)c2ncccc12 [s_527____284286____13308974] ?
*A* 69.2%

*Q* Which measured inhibition at 10 µM value corresponds to CN(C)CCCN(Cc1ccc(Cl)c(Cl)c1)c1nccc2cccnc12 [s_27____7425384____16803680] ?
*A* 96.3%

*Q* Which measured inhibition at 10 µM value corresponds to CN(C)CCCn1nc(-c2cccnc2)c2ccccc2c1=O [GMD_11677] ?
*A* 31.1%

*Q* Which measured inhibition at 10 µM value corresponds to CN(C)CCN(Cc1nccn1C)c1nc(-c2ccccn2)nc2sccc12 [s_27____16636988____12321872] ?
*A* 91.6%

*Q* Which measured inhibition at 10 µM value corresponds to CN(C)CCN(Cc1nccn1C)C(=O)c1ccn(-c2ccccc2Cl)n1 [s_22____16636986____2366818] ?
*A* 25.8%

*Q* Which measured inhibition at 10 µM value corresponds to CN(C)CCN(Cc1ccccc1)C(=O)c1cc(-c2ccccn2)ccc1Cl [s_527____284286____7794996] ?
*A* 55%

*Q* Which measured inhibition at 10 µM value corresponds to CSc1ncccc1-c1nn(CCCN(C)C)c(=O)c2ccccc12 [NBI1100649] ?
*A* 28.2%

*Q* Which measured inhibition at 10 µM value corresponds to CC1CCCCC1N=c1scc(-c2ccnn2C)n1N=Cc1ccc(Cl)cn1 (stereo not shown) [s_1____86334____13026574____11759950] ?
*A* -2.58%

*Q* Which measured inhibition at 10 µM value corresponds to CN(C)CCN(Cc1cccc(Cl)c1)c1nccc2cnccc12 [s_27____7100894____16733638] ?
*A* 99.7%

*Q* Which measured inhibition at 10 µM value corresponds to Cc1cccc2c(C(=O)N(CCN(C)C)c3ccccn3)cnn12 [s_11____17828754____16474570] ?
*A* 20.8%

*Q* Which measured inhibition at 10 µM value corresponds to CN(C)CCCn1nc(-c2ccncc2)c2ccccc2c1=O [NBI1099478] ?
*A* 23.4%

*Q* Which measured inhibition at 10 µM value corresponds to COc1c(Cl)cc(C(=O)N(CCN(C)C)C2CCCCC2)c2ncccc12 [s_22____4639446____15428718] ?
*A* 42.7%

*Q* Which measured inhibition at 10 µM value corresponds to CN(C)CCn1c(-c2ccccc2Cl)nc2ccccc21 [s_60____1081314____90809] ?
*A* 2.2%

*Q* Which measured inhibition at 10 µM value corresponds to CN(C)CCn1nc(-c2ccccc2Cl)c2ccccc2c1=O [GMD_12767] ?
*A* 84.2%
